# Tested on: MS2 coat protein
# assay: apparent KD of MS2 coat protein; designed switch direction (-1 OFF switch, 1 ON switch): 1; higher = weaker reporter binding
# applied_conditions: input ligand: none
Everything with apparent KD of MS2 coat protein lower than 200 nM is No; everything else, including exactly 200 nM, is Yes.

Worked cases, answers included:
GCUCGGCUGAUGGCCCACAUGAGGAUCACCCAUGUGAGUGGGCAGGAUAUCUAGAUUAAGGAUGUAGAGAAGGGCCUACCGAGC [SameState NG3 #35] (Eterna round: R96, puzzle: Same State NG 3)
Yes
GUUACAUGAGGAUCACCCAUGUAUGUGUGGGAGUAAGUGUCUUAGGAUAUCUAUGUUUUAAUUUAAGAGAAGGAAGAUUGUUGU [JMF's solution 71] (Eterna round: R96, puzzle: Same State NG 3)
No
AAUAUAUUAAGUGAGGAUAUCAUAGAAAAAACAUGAGGAUCACCCAUGUGGGAAACCUGGUCGGGUGAGAAGGCACUUAAUAUAU [Samwise Clockwise 29 - Jieux - Same State 2] (Eterna round: R96, puzzle: Same State 2)
Yes
GUAGCAUACCGAGGAUAUUCAUAUAACAUGAGGAUCACCCAUGUAAGGCCACAUUAGUGGCCUUGGGAGAAGGCGGAAUGCUAC [Xeonanis - 20 Mod41] (Eterna round: R96, puzzle: Same State NG 2)
No
GUUGAGAAAUAAGGAUAUACAUGGAAGACACAUGAGGAUCACCCAUGUGGGAGGGAAACCAGGAGGUAGAAGGUAUUGGGAAAC [AK SSNG2-V2-23] (Eterna round: R96, puzzle: Same State NG 2)
No
GGAUGAUAGACAGGAUAUUGAUUGUAAUUUUGUCAAGAAGGGUCUUUGAUUUAAACGACCAGUUACAUGAGGAUCACCCAUGUU [JR_SSNG1_Sub030] (Eterna round: R96, puzzle: Same State NG 1)
No
AAUUAAUUAAUUAAGUACAUGAGGAUCACCCAUGUAAGUGAUCAGGAUAUCAGCUCGUUUAGAGCUGAGAAGGGAUCCAUGUAC [SSNG3/15-A3] (Eterna round: R96, puzzle: Same State NG 3)
Yes
AUUUUUAAUGCAGGAUAUGAUUAACAUGAGGAUCACCCAUGUGGUGUUGUGAGUAAGGAGAGUGAUCAGAAGGGCAUUUUUUGU [JMF's solution 87] (Eterna round: R96, puzzle: Same State NG 2)
Yes

// switching to the query sequence
Task: Does AUUAUUUAUGCAGGAUAUGAUUAACAUGAGGAUCACCCAUGUGGUGUUGUGAGUAAGGAGAGUGAUCAGAAGGGCAUUUGUUUU [JMF's solution 48] (Eterna round: R96, puzzle: Same State NG 2) have a reported apparent KD of MS2 coat protein of at least 200 nM?
Result: Yes

---

# System: MS2 coat protein
# assay: apparent KD of MS2 coat protein; designed switch direction (-1 OFF switch, 1 ON switch): 1; higher = weaker reporter binding
# applied_conditions: input ligand: microRNA oligo, concentration not stated
Decision: apparent KD of MS2 coat protein >= 0.06 µM yields Fulfilled, all other cases yield Not fulfilled.

Worked examples follow.
GUUACAUGAGGAUCACCCAUGUAUGUGUGGGAGUAAGUGUCUUAGGAUAUCUAGUAUUUGAUUUAAGAGAAGGAAGAUUGUUGU [JMF's solution 60] (Eterna round: R96, puzzle: Same State NG 3)
Fulfilled
UUGGUACAUGAGGAUCACCCAUGUGGGUCGGUCGCAGGAUAUGCCCGUGGGCGCUUGCGGGCAGAAGGGUGCCGUA [Same State1-X] (Eterna round: R96, puzzle: Same State 1)
Fulfilled
CUGCUCGGGUGAGGAUAUGCCGCCGUUUCGGCUGCAGAAGGUGCUACGUUACAUGAGGAUCACCCAUGUCUCUGUUGUUUCGUU [salish99_SSNG1_r04_965] (Eterna round: R96, puzzle: Same State NG 1)
Not fulfilled

Now let's try a different one.
Task: Does apparent KD of MS2 coat protein meet or surpass 0.06 µM for CUCCCUUGGGUAGGAUAUCUAGGAUAUGGGAAAGACUAAGUCUGUAGGUCACCUAACCCAGAUGGAGAGAAGGACCCAACACUC [pwkr ssNG2 2FMN + F9.39] (Eterna round: R96, puzzle: Same State NG 2) ?
Result: Not fulfilled

---

// reported apparent KD of MS2 coat protein per item
# Test system: MS2 coat protein
# assay: apparent KD of MS2 coat protein; designed switch direction (-1 OFF switch, 1 ON switch): -1; higher = weaker reporter binding
# applied_conditions: input ligand: FMN 200 uM
State just the number; it will be interpreted in nM.

AUGUUGUCAGGAUAUCGUUAAUUUAGUUGUUUGUAUUAGUUCGAGAAGGGACAUGAGGAUCACCCAUGUUUGAA [Ex4 #35] (Eterna round: R97, puzzle: Exclusion 4)
41.2
AAGGUACAUGAGGAUCACCCAUGUGAGGAUAUCGUUGUUGAGUCUAGAGAUACAAUGUUGAGAAGGUACGGGUA [Eternabot (L2) Solution 94] (Eterna round: R97, puzzle: Exclusion 1)
63.1
GCCGAAAAAGUGAGGAUAUACCUAUGGAUACAUAGGUAGAAGGCACAUGAGGAUCACCCAUGUGUCCUAACGGC [Eli bmx4 4.29] (Eterna round: R97, puzzle: Brourd's mod of Exclusion 4)
18
UUCACAUGGACAUGAGAUCACAUGAGGAUCACCCAUGUGAAUAACAAGCUUUUUGUUCGUCUUAUGUCCAAUAAUAU [Stov1/14-D2] (Eterna round: R97, puzzle: Sensor, turn-off variant 1)
13.7
UGAGUCUAAGGAUAUCUGAGGCGCGACAUGAGGAUCACCCAUGUCUCCAAGGAGAGAGCUGGAGAAGGUAGCUGGA [Eternabot (L2) Solution 81] (Eterna round: R97, puzzle: Exclusion 5)
17.6

Now for another entry.
Task: apparent KD of MS2 coat protein for AGUACUAACACGAAAGUGUUAGUACAAUAAGCUUGUGAAACAUGAGGAUCACCCAUGUCCUCAUAAGCUCGUCUUAU [Mat - Sensor v2 -ver2- JL mod - D68] (Eterna round: R96, puzzle: Sensor v2, turn-off variant 2) ?
Result: 15.4

---

# Test system: MS2 coat protein
# assay: apparent KD of MS2 coat protein; designed switch direction (-1 OFF switch, 1 ON switch): 1; higher = weaker reporter binding
# applied_conditions: Eterna round: R95; input ligand: microRNA oligo, concentration not stated
Assign classes using reported apparent KD of MS2 coat protein values and the ranges category 1 (below 20 nM), category 2 (20 nM to below 60 nM), category 3 (60 nM or more), please.

AGUCCAGCCUGAGCUGGACAAAAGCAUGUACAUGAGGAUCACCCAUGUUCAUGUACAAGCUUUUUGCUCGUCUUACU [salish99_208a_r3_077] (puzzle: Sensor for hsa-mir-208a)
category 1
UGCUAUAGUAUAUUGGUGCAAGCUUUUUGACAUGAGGAUCACCCAUGUACUCGUCUUAAGCGCAGUCCGUAGACUGC (puzzle: Sensor for hsa-mir-208a)
category 1
GGUCCCUACGCACAGGAUAUUCUUUUGGCAACAUGAGGAUCACCCAUGUGUGCCGAUCAUGGUUAGAAGAAGGGUGGUAAGGACG [Qucesosobe] (puzzle: Same State 2)
category 1
AAGCCUGUAGCACAGGAUAUCCGAGGCAAAACAUGAGGAUCACCCAUGUCAAACGAAAAUCCGAAGGAGAAGGGUGAACAGGCUC [Laarededqu] (puzzle: Same State 2)
category 1
ACCCGAAGUAUAUGGGAACAAGCUUUUUAACAUGAGGAUCACCCAUGUACUCGUCUUAUAAGCAGUCGAAAGACUGC [Sensor 100 - 5] (puzzle: Sensor for hsa-mir-208a)
category 1
UACAAUCUAUCUGAGGAUAUCAUGCAUUACACAUGAGGAUCACCCAUGUGCAGGAAAACUGCAUAUGAGAAGGCAGAUAGAUUGU [salish99_ss2_r3_066] (puzzle: Same State 2)
category 3

Task: Textbook exercise: identify the category of the sequence given here, CUAAAACAUGAGGAUCACCCAUGUCAACAAAGUCGAGGAUAUGGGCAAAUAAAAUAAGAACCAGAAGGCGAAUAAU [salish99_SS1_r3_012] (puzzle: Same State 1) , according to its measured value.
Result: category 3

Task: Exam item: assign UCAAGCGAGAGGCUCGUCUUAUGUAAGGUACAUGAGGAUCACCCAUGUGAGGGACGAUUGAGUUAGAUGGAAUGGAG [JR_SHM208A_Sub033] (puzzle: Sensor for hsa-mir-208a) to the correct category.
Result: category 3

Task: Please classify: GAGUUACAUGAGGAUCACCCAUGUUGUUUUGGAUAAGGAUAUAUGGUAGGAAGAGGAAUGAUAGAAGGUAUUAGGG [JR_SS1_Sub063] (puzzle: Same State 1)
Result: category 2
